- procedure.details: M. tuberculosis H37Rv growth inhibitors, H37Rv strain (AID 1626);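 further: bacteria incubated seven days before Alamar blue readout; 0% = bacteria only wells and 100% = bacteria with antibiotic wells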
- test.conditions: hits give high values, concentration not given here
Screen size: about 220,000 compounds; about 2,000 (0.91%) were called active. Another 2% or so got no clear call; they are omitted. These entries were drawn from the full list. Measured potencies and affinities stand elsewhere.
observed.property: inhibition (%)
Give bare numbers, in %.

compound: O=C(c1cn(-c2ccccc2)nc1-c1ccccc1)N1CCOCC1
unit.abbrev: %
inhibition: -8.16

Give me inhibition for each of these compounds, listed below.
1. FC(F)(F)c1cc(Oc2ccccc2)nc(-c2ccccn2)n1
2. Cc1cc(Cl)nc(-n2nc(C)cc2C)n1
3. Cc1ccc([N+](=O)[O-])cc1NCC(=O)NN

12.1
-0.69
-8.54

====

- procedure.details: M. tuberculosis H37Rv growth inhibitors, H37Rv strain (AID 1626)
- test.conditions: hits give high values, concentration not given here
Screen size: about 220,000 compounds; about 2,000 (0.91%) were called active. Not shown: some 2% with an inconclusive outcome. Not all results are given here. Entries with a potency or affinity are not part of this list.
observed.property: inhibition (%)
Give bare numbers, in %.

compound: O=[N+]([O-])c1ccc2c(c1)oc1ccccc12
inhibition [%]: -1.07

Give me inhibition for each of these compounds, listed below.
1. O=C(CSc1nc2ccccc2s1)Nc1ccc2c(c1)OCO2
2. COC(=O)C1=C(C)N(Cc2ccco2)C(=O)N[C@H]1c1cccc(C(F)(F)F)c1
3. COc1ccc2nc3sc(C(=O)NCCN4CCc5ccccc5C4)cc3cc2c1
4. CCOC(=O)N1CCN(C(=O)C2CCN(S(=O)(=O)c3ccc(C)cc3)CC2)CC1

[76.4, -4.29, 11.3, -7.16]

Give me inhibition for each of these compounds, listed below.
1. O=C(NCCN1CCN(c2ccccc2)CC1)c1cccn2c(=O)c3ccccc3nc12
2. O=c1c2c(nc3nc(NCc4ccccc4Cl)[nH]n13)CCC2
3. CC(C)C(NS(=O)(=O)c1cccs1)C(=O)N(C)Cc1ccccc1 (configuration not stated)
4. CC1CCCN(c2c([N+](=O)[O-])cc(C(=O)O)cc2[N+](=O)[O-])C1 (configuration not stated)
5. O=C(O)c1ccccc1SCC(=O)N1CCOCC1
6. Cc1ccc(NC(=O)COc2ccccc2[N+](=O)[O-])nc1
7. CSc1nsc(SCC(=O)Nc2cccc(C(C)=O)c2)n1

1: 5.61; 2: -14.3; 3: -0.19; 4: -5.57; 5: 7.09; 6: 0.84; 7: -15.7

====

- procedure.details: M. tuberculosis H37Rv growth inhibitors, H37Rv strain (AID 1626)
- test.conditions: hits give high values, concentration not given here
Out of some 220,000 compounds screened, about 2,000 (0.91%) were called active. Inconclusive results (about 2%) are left out. The list is a sample of the results. Entries with a potency or affinity are not part of this list.
observed.property: inhibition (%)
Answers are plain numbers, in %.

Give me inhibition for each of these compounds, listed below.
1. OC(CNC1CCCC1)COc1ccc(-c2ccccc2)cc1 (stereo not given)
2. Cc1ccc2nc(-c3ccncc3)cc(-c3ccccc3)c2c1
3. Cc1ccc(NC(=O)C2CCCN(C(=O)c3ccc(Cl)cc3)C2)cc1C (stereo not given)
4. COc1ccccc1N1CCN(Cc2nc(N)nc(Nc3ccccc3)n2)CC1
5. COC(=O)C1=C(c2cc3ccccc3s2)C[C@@H]2CC[C@H]1N2C(=O)NCCCOC(C)C
6. CC(C)CCNC(=O)CCSCCC(=O)NCCC(C)C

10.9
9.15
2.5
-1.85
-2.33
-5.9

Give me inhibition for each of these compounds, listed below.
1. COc1ccc(Nc2nc(N)nc(CN3CCN(c4ccc(F)cc4)CC3)n2)cc1
2. CC(CS(=O)(=O)c1cccc2cccnc12)N1CCCCC1 (stereo not given)
3. CCOc1ccc(OCC(O)CNC2CCN(Cc3ccccc3)CC2)cc1 (stereo not given)
4. CC(=O)Nc1ccc(N(C(=O)c2ccco2)C(C(=O)NC2CCCC2)c2cccs2)cc1 (stereo not given)

1. 2.63
2. 2.17
3. 1.56
4. -12.6

====

- procedure.details: M. tuberculosis H37Rv growth inhibitors, H37Rv strain (AID 1626);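 further: bacteria incubated seven days before Alamar blue readout; 0% = bacteria only wells and 100% = bacteria with antibiotic wells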
- test.conditions: hits give high values, concentration not given here
Screen size: about 220,000 compounds; about 2,000 (0.91%) were called active. Inconclusive results (about 2%) are left out. Not all results are given here. Measured potencies and affinities stand elsewhere.
Could you please report measured inhibition for the items listed next?
Answers are plain numbers, in %.

Solved entries:
molecule: O=C(COC(=O)c1cc(S(=O)(=O)N2CCCC2)ccc1O)Nc1ccc(S(=O)(=O)N2CCOCC2)cc1
unit.abbrev: %
val: 1.29
--
molecule: COc1ccc(C(=O)c2ccc(Cl)cc2)cc1
unit.abbrev: %
val: 6.37
--
molecule: CCN(CC)S(=O)(=O)c1ccc(C(=O)N2CCc3ccccc32)cc1
unit.abbrev: %
val: -0.89
--
molecule: CCCCn1c(=N)n(CC(O)COc2cccc(C)c2)c2ccccc21 (configuration not stated)
unit.abbrev: %
val: 0.69
--
molecule: COc1ccc(OC)c(N2C(=O)CC(Cc3ccc(Cl)cc3)C2=O)c1 (configuration not stated)
unit.abbrev: %
val: -4.41

Give me inhibition for each of these molecules, listed below.
1. Cn1cc(/C=C(\C#N)C(=O)Nc2ncc(Cc3ccc(Cl)cc3)s2)c2ccccc21
2. O=C(CCCn1cc([N+](=O)[O-])cn1)NC1CCCCCC1
3. COc1ccc(/C=C/C(=O)c2ccncc2)c2ccccc12
4. CC(OC(=O)CCC(=O)c1cccs1)C(=O)Nc1ccc(Cl)cn1 (configuration not stated)
5. CCC1CCCCN1C(=O)CCCOc1ccccc1 (configuration not stated)
6. CC(OC(=O)c1ccc(Cl)c(S(=O)(=O)Nc2ccc(F)cc2)c1)C(=O)NC(N)=O (configuration not stated)
7. N=c1n(CCN2CCCCC2)c2ccccc2n1CC(O)COc1ccccc1 (configuration not stated)

1. 1.97
2. 5.99
3. 76
4. 2.41
5. -1.7
6. -1.89
7. -5.72

====

- procedure.details: M. tuberculosis H37Rv growth inhibitors, H37Rv strain (AID 1626);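 further: bacteria incubated seven days before Alamar blue readout; 0% = bacteria only wells and 100% = bacteria with antibiotic wells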
- test.conditions: hits give high values, concentration not given here
Hit rate of the full screen: of about 220,000 compounds, about 2,000 (0.91%) were called active. About 2% were inconclusive and are not listed. The list is a sample of the results. Potency and affinity values are given separately.
observed.property: inhibition (%)
One number for each entry, in %.

Solved entries:
compound: O=[N+]([O-])c1ccccc1OCCOCCOc1cccc2cccnc12
val: -5.36

compound: O=C(CSc1nnc(-c2ccc(O)cc2)o1)Nc1ccc2c(c1)OCCO2
val: -0.38

compound: Cc1ccc(CC2C(=O)N(CC(=O)O)C(=O)C2C)cc1 (configuration not stated)
val: -14.9

compound: CCc1ccc(N2Cc3ccccc3C2)cc1
val: 14.3

compound: Cc1ccc(NCc2nnc(SCC(=O)Nc3cc(C)on3)n2C)cc1
val: -5.91

Give me inhibition for each of these compounds, listed below.
1. COc1ccccc1-c1nnc(SCC(=O)Nc2c(Cl)cccc2Cl)o1
2. COCCCNC(=O)c1c(NC(=O)C2COc3ccccc3O2)sc2c1CCCC2 (configuration not stated)
3. CCCCNc1ccc(S(N)(=O)=O)cc1[N+](=O)[O-]
4. COc1ccc(NC(=O)CSc2nc3c([nH]c4ccccc43)c(=O)n2C)cc1

1. -3.32
2. -1.45
3. -3.02
4. 7.61

====

- procedure.details: M. tuberculosis H37Rv growth inhibitors, H37Rv strain (AID 1626);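 further: bacteria incubated seven days before Alamar blue readout; 0% = bacteria only wells and 100% = bacteria with antibiotic wells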
- test.conditions: hits give high values, concentration not given here
The campaign covered roughly 220,000 compounds. About 2,000 (0.91%) were called active. Inconclusive results (about 2%) are left out. The list is a sample of the results. Entries with a potency or affinity are not part of this list.
observed.property: inhibition (%)
Answers are plain numbers, in %.

molecule: CCN(CC)S(=O)(=O)c1ccc(N=N/C(C(C)=O)=C(/C)O)cc1
inhibition (%): -10.5

molecule: Nc1nc(CN2CCN(c3ccccc3F)CC2)nc(Nc2ccc3c(c2)OCCO3)n1
inhibition (%): 12.1

molecule: CCOC(=O)c1cnc(-n2nc(C)cc2C)nc1Oc1ccc(C(=O)OC)cc1
inhibition (%): 8.41

molecule: Cc1ccc(NCCC(=O)c2ccc(Cl)cc2)cc1
inhibition (%): 51.3

molecule: Cc1ccc(O)c(C(=O)CC(=O)c2cccc(F)c2)c1
inhibition (%): 62.1

molecule: COCc1cc(Sc2ccc(Cl)cc2)nc(C)n1
inhibition (%): 18.1

molecule: COc1ccccc1OCC(O)CNCc1ccc2c(c1)OCO2 (centres undefined)
inhibition (%): -7.62

molecule: CCNc1nc(Cl)nc(NNC(=O)C(C)Oc2ccccc2)n1 (centres undefined)
inhibition (%): 0.39

Look up inhibition for this molecule: CCOC(=O)c1cnc(-n2nc(C)cc2C)nc1Oc1ccc(C#N)cc1 -2.96
